Test system: RPMI-8226 leukemia
Assay: NCI-60 one-dose screen, 48 h (100 = growth as untreated, 0 = no growth, -100 = all killed)
Conditions: 10 µM
This is part of a sample that, as a whole, favours compounds with a hit. Of some 83,000 tested, about 20% had one in any assay.
Assign labels as follows, please: True for growth below 40%; False for growth equal to or exceeding 40%.

Consider the worked cases shown below.
Compound | Measured On | Class Label
COc1cc(C2C(C#N)=C(N)Oc3cc(O)ccc32)cc(OC)c1OC (stereo not drawn) | RPMI-8226 leukemia | True
Nc1ncc(-c2cnn(C3CCNCC3)c2)cc1-c1nc2ccccc2o1 | RPMI-8226 leukemia | True
C=CCSC(CC)(CC)C(=O)NC | RPMI-8226 leukemia | False
CNS(=O)(=O)Oc1ccc(-c2sc3cc(OS(=O)(=O)NC)ccc3c2C(=O)c2ccc(OCCN3CCCCC3)cc2)cc1 | RPMI-8226 leukemia | True
CCn1c(SC/C(=N/O)c2ccccc2)nnc1-c1ccccc1 | RPMI-8226 leukemia | False

[Q] Take the compound O=C(CI)OCC(COC(=O)CI)OC(=O)CI and say whether its growth is less than 40%.
[A] False

[Q] Take the compound C=CCN(CC=C)C(=O)[C@H](CC)[C@@H]1CC[C@@H](C)[C@@H]([C@H](C)[C@@H](O)[C@@H](C)C(=O)[C@H](CC)C2O[C@]3(C=CC(=O)[C@]4(CC[C@@](C)([C@H]5CC[C@](O)(CC)[C@H](C)O5)O4)O3)[C@H](C)C[C@@H]2C)O1 (stereo partly drawn) and say whether its growth is less than 40%.
[A] True

[Q] Take the compound O=C1/C=C/[C@@H](O)[C@@H]2C[C@@H](O)C[C@H]2/C=C/CCC[C@H](C(F)(F)F)O1 and say whether its growth is less than 40%.
[A] True

[Q] Take the compound c1ccc(CSc2ncccc2-c2nnc(SCCN3CCOCC3)o2)cc1 and say whether its growth is less than 40%.
[A] False

[Q] Take the compound CN(C)CCCOc1ccc(OCCCN(C)C)c2c1C(=O)c1ccccc1C2=O and say whether its growth is less than 40%.
[A] True

[Q] Take the compound CCCCCCCCCCOC(c1ccccc1)c1ccccc1 and say whether its growth is less than 40%.
[A] False

[Q] Take the compound O=C(COc1cccc(/C=C2\CSc3ccc(Cl)cc3C2=O)c1)c1ccc(Cl)cc1 and say whether its growth is less than 40%.
[A] True

[Q] Take the compound S=c1cnc2ccccc2[nH]1 and say whether its growth is less than 40%.
[A] False

###

Tested on: MDA-MB-231 breast
Test: NCI-60 one-dose screen, 48 h (100 = growth as untreated, 0 = no growth, -100 = all killed)
Settings: 10 µM
About 83,000 compounds went through this panel and 20% of them were active in at least one assay; those are over-represented in the sample as a whole.
Measure Name: growth (%)
Give bare numbers, in %.

Molecule | growth (%)
C=CCNCCN1C(=O)c2ccc3c4c(ccc(c24)C1=O)C(=O)N(CCNCC=C)C3=O | 5.12
S=C(NCc1ccccc1)NCc1ccccc1 | 100

Please state, for each entry, its recorded growth.
1. CN(C)c1nc(N)c2nccnc2n1
2. COc1cc(/C=C/c2cc(/C=C/c3ccc(O)c(OC)c3)nc(N)n2)ccc1O
3. Cc1ccc(C2NC(=S)N3C(c4ccc(C)cc4)NC(=S)N23)cc1 (centres undefined)
4. C=CCn1c(SCC(=O)Nc2ccc(C(=O)/C=C/c3ccc(OC)cc3)cc2)nnc1-c1ccc(OC)c(OC)c1
5. Nc1nc(Cl)nc2c1ncn2C1O[C@H](CO)[C@@H](O)[C@@H]1F (some centres undefined)
6. CCOC(=O)c1sc2ncnc(Nc3ccc4c(cnn4C(=O)Nc4ccc(C)c(Cl)c4)c3)c2c1C
7. Cc1cc(C(C#N)c2ccc(Cl)cc2)c(Cl)cc1NC(=O)c1cc(I)cc(I)c1O (centres undefined)

[A]
[108, 3.39, 59.4, 72.3, 70, 96.5, 46.6]
